Taken from paper doi:10.1101/2020.08.18.255380v4.

- Target Or System: DalS (Salmonella enterica, UniProt Q8ZPA3, F117L)
- Measurement Notes: biochemical
pKd: −log10 of the molar value.
Recorded Metric: pKd

| Cpd Smiles | Recorded Metric | Value Observed |
| --- | --- | --- |
| N[C@H](CO)C(=O)O | pKd | 5.43 |

###

- Target Or System: DalS (Salmonella enterica, UniProt Q8ZPA3, A147S)
- Measurement Notes: biochemical
pKd: −log10 of the molar value.
Below is a list of entries, each paired with its recorded pKd value.

| Compound | pKd |
| --- | --- |
| C[C@@H](N)C(=O)O [D-alanine] | 6.21 |
| N[C@H](CO)C(=O)O [D-serine] | 5.74 |

###

- Target Or System: DalS (Salmonella enterica, UniProt Q8ZPA3, A147S/A76D/D216E/F117L/S60R/Y148Q)
- Measurement Notes: biochemical

| Cpd Smiles | Target Or System | Kd / µM |
| --- | --- | --- |
| N[C@H](CO)C(=O)O | DalS (Salmonella enterica, UniProt Q8ZPA3, A147S/A76D/D216E/F117L/S60R/Y148Q) | 70 |

###

- Target Or System: DalS (Salmonella enterica, UniProt Q8ZPA3, Y148Q)
- Measurement Notes: biochemical
pKd: −log10 of the molar value.

| Compound | pKd |
| --- | --- |
| N[C@H](CO)C(=O)O [D-serine] | 4.00 |

###

- Target Or System: DalS (Salmonella enterica, UniProt Q8ZPA3, A147S/F117L/Y148Q)
- Measurement Notes: biochemical

| Compound | Kd |
| --- | --- |
| N[C@H](CO)C(=O)O [D-serine] | 43 µM |
